- ASSAYED SYSTEM: nsp16/nsp10 (Severe acute respiratory syndrome coronavirus 2)
- Construct: gene rep
- MEASUREMENT PROTOCOL: HTRF methyltransferase assay (SAM to SAH)
- Format: biochemical
- APPLIED CONDITIONS: read-out: SARS-CoV-2 / nsp16/nsp10, IC50
Below, each entry is listed alongside its reported IC50.
Kindly answer with a numeric value in nM, unit omitted.

Consider the reported IC50 for these compounds:
In [3]: df
Out[3]:
                                   compound  observed_value
0  Nc1ncnc2c1ncn2[C@@H]1O[C@H](CSCc2ccc(C(=O)O)cc2)[C@@H](O)[C@H]1O [5a, 4-(((Adenosyl)thio)methyl)benzoic acid]            1450
1  Nc1ncnc2c1ncn2[C@@H]1O[C@H](CSCc2cccc(CC(=O)O)c2)[C@@H](O)[C@H]1O [5d]            1840
2  Nc1ncnc2c1ncn2[C@@H]1O[C@H](CSc2cc(C(=O)O)ccc2Cl)[C@@H](O)[C@H]1O [10b, 4-Chloro-5-((adenosyl)thio)benzoic acid]            2300
3  Nc1ncnc2c1ncn2[C@@H]1O[C@H](CSc2ccc(Cl)c(C(=O)O)c2)[C@@H](O)[C@H]1O [10a, 2-Chloro-5-((adenosyl)thio)benzoic acid]              30

We now examine a further compound.
// lookup IC50 | system=nsp16/nsp10 (Severe acute respiratory syndrome coronavirus 2) | key= CS(=O)(=O)Nc1cccc(CSC[C@H]2O[C@@H](n3cnc4c(N)ncnc43)[C@H](O)[C@@H]2O)c1 [5c]
480
